Target: Recombinant full length human CBS (Homo sapiens)
Assay: AzMC fluorescence assay of CBS-derived H2S production
Format: biochemical
Details: 30 μM, mean ± SEM, n = 3
Provide the reported Confirmation (% inhibition of CBS-induced AzMC fluorescence) of each item.
One number for each entry, in %.

[[record]]
molecule = "N.N.N.N.N.N.N.N.N.N.N.N.N.N.[Cl-].[Cl-].[Cl-].[Cl-].[Cl-].[Cl-].[O-2].[O-2].[Ru+3].[Ru+3].[Ru+4]"
result_unit = "%"
readout_number = 72

[[record]]
molecule = "N#C/C(=C\\c1ccc(O)c(O)c1)C(=O)NCCCNC(=O)/C(C#N)=C/c1ccc(O)c(O)c1"
result_unit = "%"
readout_number = 42

[[record]]
molecule = "O=C1C(SCCO)=C(SCCO)C(=O)c2ccccc21"
result_unit = "%"
readout_number = 59

[[record]]
molecule = "NC(N)=NC(=O)c1nc(Cl)c(N2CCCCCC2)nc1N [5-(N,N-hexamethylene)amiloride]"
result_unit = "%"
readout_number = 58


Shifting focus to the molecule that follows.
Consider the molecule shown here: `O=S(=O)([O-])c1cc(N=C=S)ccc1C=Cc1ccc(N=C=S)cc1S(=O)(=O)[O-].[Na+].[Na+]` What is its recorded Confirmation (% inhibition of CBS-induced AzMC fluorescence)?
58

----------
Target: Recombinant full length human CBS (Homo sapiens, UniProt P35520)
Sequence (P35520 whole entry): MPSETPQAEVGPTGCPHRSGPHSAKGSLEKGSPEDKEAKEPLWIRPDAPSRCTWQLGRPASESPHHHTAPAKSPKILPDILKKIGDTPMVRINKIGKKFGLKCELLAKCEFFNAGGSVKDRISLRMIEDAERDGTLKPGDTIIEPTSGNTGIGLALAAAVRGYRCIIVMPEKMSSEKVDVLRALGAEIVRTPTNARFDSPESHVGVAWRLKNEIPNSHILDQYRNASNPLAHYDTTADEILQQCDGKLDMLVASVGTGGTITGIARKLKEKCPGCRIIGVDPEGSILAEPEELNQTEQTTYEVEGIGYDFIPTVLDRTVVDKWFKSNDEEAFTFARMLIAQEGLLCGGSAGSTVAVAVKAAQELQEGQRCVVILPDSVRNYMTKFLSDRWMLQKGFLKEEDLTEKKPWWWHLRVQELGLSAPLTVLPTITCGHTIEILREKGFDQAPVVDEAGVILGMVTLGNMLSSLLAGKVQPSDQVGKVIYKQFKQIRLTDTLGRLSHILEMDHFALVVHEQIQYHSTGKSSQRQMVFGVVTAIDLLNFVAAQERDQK
Experiment: Methylene blue assay of CBS-derived H2S
Format: biochemical
Details: read-out: % inhibition of CBS-induced methylene blue signal
value kind: inhibition at 30 µM (%)
One number for each entry, in %.

[[record]]
compound = "O=C(O)C1=CC(=C(c2ccc(O)c(C(=O)O)c2)c2ccc(O)c(C(=O)O)c2)C=CC1=O [Aurintricarboxylic acid]"
readout_number = 61

[[record]]
compound = "Oc1c(Cl)cc(Cl)c(Cl)c1Cc1c(O)c(Cl)cc(Cl)c1Cl.Oc1c(Cl)cc(Cl)c(Cl)c1Cc1c(O)c(Cl)cc(Cl)c1Cl [Hexachlorophene]"
readout_number = 31

[[record]]
compound = "Cn1ncnc2c(=O)n(C)c(=O)nc1-2 [NSC67078]"
readout_number = 95


Consider the compound shown here: O=C(OC[C@H]1O[C@@H](OC(=O)c2cc(O)c(O)c(OC(=O)c3cc(O)c(O)c(O)c3)c2)[C@H](OC(=O)c2cc(O)c(O)c(OC(=O)c3cc(O)c(O)c(O)c3)c2)[C@@H](OC(=O)c2cc(O)c(O)c(OC(=O)c3cc(O)c(O)c(O)c3)c2)[C@@H]1OC(=O)c1cc(O)c(O)c(OC(=O)c2cc(O)c(O)c(O)c2)c1)c1cc(O)c(O)c(OC(=O)c2cc(O)c(O)c(O)c2)c1 [Tannic acid] What is its recorded inhibition at 30 µM?
46

----------
Provide the reported inhibition at 30 µM of each item.
Biological target: Recombinant full length human CBS (Homo sapiens, UniProt P35520)
Assay: AzMC fluorescence assay of CBS-derived H2S production
Format: biochemical
Conditions: read-out: Confirmation (% inhibition of CBS-induced AzMC fluorescence), 30 μM, mean ± SEM, n = 3
Answers are plain numbers, in %.

List inhibition at 30 µM for every entry below, keeping the order given.
1. O=Nc1ccc(O)c2ncccc12
2. O=C(OC[C@H]1O[C@@H](OC(=O)c2cc(O)c(O)c(OC(=O)c3cc(O)c(O)c(O)c3)c2)[C@H](OC(=O)c2cc(O)c(O)c(OC(=O)c3cc(O)c(O)c(O)c3)c2)[C@@H](OC(=O)c2cc(O)c(O)c(OC(=O)c3cc(O)c(O)c(O)c3)c2)[C@@H]1OC(=O)c1cc(O)c(O)c(OC(=O)c2cc(O)c(O)c(O)c2)c1)c1cc(O)c(O)c(OC(=O)c2cc(O)c(O)c(O)c2)c1
3. CC(C)/N=c1\cc2n(-c3ccc(Cl)cc3)c3ccccc3nc-2cc1Nc1ccc(Cl)cc1
4. NC(=O)N/N=C/c1ccc([N+](=O)[O-])o1
5. COC1=C(OC)C(=O)c2ccccc2C1=O
6. O=C1C(SCCO)=C(SCCO)C(=O)c2ccccc21
7. CC(=O)[C@H]1CC[C@H]2[C@@H]3CCC4=CC(=O)CC[C@]4(C)[C@H]3CC[C@]12C
8. O=C(N/N=C/c1ccc([N+](=O)[O-])o1)c1ccc(O)cc1 [Nifuroxazide]

1. 48
2. 43
3. 30
4. 54
5. 53
6. 58
7. 75
8. 55

List inhibition at 30 µM for every entry below, keeping the order given.
1. Cc1cc2nc3c(=O)[nH]c(=O)nc-3n(C)c2cc1C=O
2. O=C(O)C1=CC(=C(c2ccc(O)c(C(=O)O)c2)c2ccc(O)c(C(=O)O)c2)C=CC1=O
3. Oc1c(Cl)cc(Cl)c(Cl)c1Cc1c(O)c(Cl)cc(Cl)c1Cl.Oc1c(Cl)cc(Cl)c(Cl)c1Cc1c(O)c(Cl)cc(Cl)c1Cl

1. 59
2. 87
3. 12
